Source: ChEMBL document CHEMBL2439983

Biological target: Protein deacetylase HDAC6 (Homo sapiens, UniProt Q9UBN7)
Sequence (Q9UBN7 whole entry): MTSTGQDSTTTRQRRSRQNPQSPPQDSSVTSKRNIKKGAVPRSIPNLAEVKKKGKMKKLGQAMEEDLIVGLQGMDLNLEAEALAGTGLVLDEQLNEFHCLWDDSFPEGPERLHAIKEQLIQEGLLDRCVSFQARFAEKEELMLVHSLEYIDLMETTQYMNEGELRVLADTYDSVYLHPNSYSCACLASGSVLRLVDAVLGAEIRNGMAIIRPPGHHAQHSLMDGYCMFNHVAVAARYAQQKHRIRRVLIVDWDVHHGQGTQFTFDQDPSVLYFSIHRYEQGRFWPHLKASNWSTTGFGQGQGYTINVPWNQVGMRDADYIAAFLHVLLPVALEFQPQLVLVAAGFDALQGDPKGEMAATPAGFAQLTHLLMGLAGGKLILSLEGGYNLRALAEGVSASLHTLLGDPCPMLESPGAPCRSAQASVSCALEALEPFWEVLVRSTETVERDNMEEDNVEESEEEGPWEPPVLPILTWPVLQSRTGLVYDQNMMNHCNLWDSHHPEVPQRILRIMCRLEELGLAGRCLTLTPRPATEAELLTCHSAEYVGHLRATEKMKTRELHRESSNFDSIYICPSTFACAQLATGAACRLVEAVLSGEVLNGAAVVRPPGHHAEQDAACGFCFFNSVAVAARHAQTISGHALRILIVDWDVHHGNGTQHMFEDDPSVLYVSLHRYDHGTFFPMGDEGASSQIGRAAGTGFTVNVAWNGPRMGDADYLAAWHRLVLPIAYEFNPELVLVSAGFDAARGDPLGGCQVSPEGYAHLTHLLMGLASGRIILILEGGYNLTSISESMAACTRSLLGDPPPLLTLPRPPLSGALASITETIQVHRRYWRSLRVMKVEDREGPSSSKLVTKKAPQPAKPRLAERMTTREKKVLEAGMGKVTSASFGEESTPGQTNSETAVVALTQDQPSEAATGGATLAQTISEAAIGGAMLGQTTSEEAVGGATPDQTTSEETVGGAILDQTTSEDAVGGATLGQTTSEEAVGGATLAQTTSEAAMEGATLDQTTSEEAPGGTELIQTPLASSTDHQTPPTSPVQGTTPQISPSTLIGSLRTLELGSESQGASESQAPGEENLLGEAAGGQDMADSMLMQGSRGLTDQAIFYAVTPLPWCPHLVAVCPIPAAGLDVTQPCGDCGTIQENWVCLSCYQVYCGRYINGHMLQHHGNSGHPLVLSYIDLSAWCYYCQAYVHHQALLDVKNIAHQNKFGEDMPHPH
Test: Inhibition of human recombinant HDAC6 expressed in baculovirus infected insect high5 cells using Boc-Lys (epsilon-acetyl)-AM) as substrate after 3 to 24 hrs by fluorescence assay
measuredEndpoint: log10 IC50 (log10 of the value in nM)

[[record]]
mol = "COc1cc([C@@H]2c3cc4c(cc3[C@@H](Nc3ccccc3OCCCC(=O)NO)[C@H]3COC(=O)[C@H]23)OCO4)cc(OC)c1O"
measuredresult = 2.55

[[record]]
mol = "COc1cc([C@@H]2c3cc4c(cc3[C@@H](Nc3ccc(OCCCC(=O)NO)cc3)[C@H]3COC(=O)[C@H]23)OCO4)cc(OC)c1O"
measuredresult = 2.33

[[record]]
mol = "COc1cc([C@@H]2c3cc4c(cc3[C@@H](Nc3cccc(OCCCC(=O)NO)c3)[C@H]3COC(=O)[C@H]23)OCO4)cc(OC)c1O"
measuredresult = 2.61

[[record]]
mol = "COc1cc([C@@H]2c3cc4c(cc3[C@@H](Nc3ccccc3OCCCCCC(=O)NO)[C@H]3COC(=O)[C@H]23)OCO4)cc(OC)c1O"
measuredresult = 1.30

[[record]]
mol = "COc1cc([C@@H]2c3cc4c(cc3[C@@H](Nc3ccccc3OCCCCCCCC(=O)NO)[C@H]3COC(=O)[C@H]23)OCO4)cc(OC)c1O"
measuredresult = 2.34

[[record]]
mol = "COc1cc([C@@H]2c3cc4c(cc3[C@@H](Nc3cccc(NC(=O)CCCCCCC(=O)NO)c3)[C@H]3COC(=O)[C@H]23)OCO4)cc(OC)c1O"
measuredresult = 1.60

